Data origin: paper PMC11019538

# System: human peripheral blood mononuclear (PBM) cells
# MEASUREMENT PROTOCOL: MTT cytotoxicity, PBM cells
# Assay type: cell-based
Hi there, I'd appreciate the recorded CC50 for every entry that follows.
The reply should be a number in µM, with the unit left off.

# CC50 (compound: COc1ccc(-c2cc(C(=O)Oc3cccc(-c4cnc5ccccc5n4)c3)c3ccccc3n2)cc1 [GT-31] ) is 86

# CC50 (compound: CCN(CC)CCCNc1cc(OC)c(Nc2ccccc2)c2cccnc12 [GT-49] ) is 27

# CC50 (compound: Cc1c(CCN)ccc2c1[nH]c1ccccc12 [GT-6] ) is 47.7

# CC50 (compound: OC(Cn1cnc(-c2ccccc2)c1-c1cc2ccccc2[nH]1)c1cccnc1 (stereo not shown) [GT-41] ) is 27

# CC50 (compound: CC(N)c1ccc(-c2ccc(F)cc2)cc1 (stereo not shown) [GT-29] ) is 25

# CC50 (compound: Oc1c(C(Nc2ccccc2)c2ccccc2)ccc2cccnc12 (stereo not shown) [GT-48] ) is 20

# CC50 (compound: CC(=O)N1CCC(NCc2nc(-c3ccc(C)cc3)c(-c3ccccn3)[nH]2)CC1 [GT-44] ) is 64

# CC50 (compound: CCC(CO)Nc1nc2ccc(Cl)cc2c2ccccc12 (stereo not shown) [GT-10] ) is 18.2

# CC50 (compound: Cc1cc(-c2ccccc2)nc(C#N)c1C#N [GT-27] ) is 14.7

# CC50 (compound: N#CC(c1ccccc1)C(C(Cc1ccccc1)=NO)c1ccccc1 (stereo not shown) [GT-11] ) is 63.9

# CC50 (compound: CNc1cc(C#N)nc(-c2ccccc2)n1 [GT-28] ) is 24

# CC50 (compound: O=C(Cc1ccc(O)cc1)NCc1nc(-c2cccc(F)c2)c(-c2ccccn2)[nH]1 [GT-42] ) is 3.5

# CC50 (compound: CCN1CCN(C(=O)c2ccc(-c3nc4ccccc4nc3-c3ccccc3)cc2)CC1 [GT-30] ) is 60

# CC50 (compound: Clc1ccccc1C=Cc1ccnc2ccccc12 [GT-3] ) is 34

# CC50 (compound: O=C(NCCN1CCOCC1)c1ccc2nc(-c3ccccc3)c(-c3ccccc3)nc2c1 [GT-36] ) is 10

# CC50 (compound: Cc1ccc(-c2nc(CNC(=O)C3CCOC3)[nH]c2-c2ccccn2)cc1 (stereo not shown) [GT-43] ) is 42

# CC50 (compound: CC(CC(C#N)(c1ccccc1)c1ccccc1)N1CCCCC1 (stereo not shown) [GT-2] ) is 85.3

# CC50 (compound: c1ccc(Cn2cc(-c3cccnc3)c(-c3nc(-c4ccccc4)c(-c4ccccc4)[nH]3)n2)cc1 [GT-34] ) is 59
